Test system: SK-BR-3 cells
test.details: Measurement of cell growth inhibition (crystal violet staining)
Type: cell-based
condition: Homo sapiens, 72 hours culture with test substance
parameter.measured: IC50 (µM)

P = CC(C)c1nn(-c2ccc(C(N)=O)c(NC(C)(C)C)c2)c2cccc(-n3cnc(-c4cnn(C)c4)c3)c12 [Example 9]
Q = Cc1cc(C(N)=O)ccc1-n1nc(C(C)C)c2c(-n3cnc(-c4cccnc4)c3)cccc21 [Example 4]
R = CC(C)c1nn(-c2ccc(C(N)=O)cc2NC2CCC2)c2cccc(-n3cnc(-c4cccnc4)c3)c12 [Example 11]
S = CC(C)(C)Nc1cc(-n2nc(C(F)(F)F)c3c(-n4cnc(-c5cccnc5)c4)cccc32)ccc1C(N)=O [Example 16]
Lab note: rank above entries, IC50 ascending. Order the labels as requested and give them as your answer.
P, S, R, Q

Hello, the source for this data is patent US9120780B2, in case you need it.
